SYSTEM TESTED: 5-hydroxytryptamine receptor 5A (Homo sapiens) (UniProt P47898)
Sequence (P47898 whole entry, looked up): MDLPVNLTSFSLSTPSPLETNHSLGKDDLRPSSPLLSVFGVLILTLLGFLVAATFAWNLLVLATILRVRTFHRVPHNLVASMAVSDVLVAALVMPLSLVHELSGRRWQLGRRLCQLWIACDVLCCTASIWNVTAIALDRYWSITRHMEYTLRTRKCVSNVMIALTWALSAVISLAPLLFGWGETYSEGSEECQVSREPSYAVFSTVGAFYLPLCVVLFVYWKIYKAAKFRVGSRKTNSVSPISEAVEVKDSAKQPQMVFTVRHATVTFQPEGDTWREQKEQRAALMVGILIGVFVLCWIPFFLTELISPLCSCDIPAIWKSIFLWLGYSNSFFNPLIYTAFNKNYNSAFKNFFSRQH
EXPERIMENT: activation of human 5-HT5A receptor – cell-based, luminescence, full-deck HTS, counter-screen for OPRM1-OPRD1 heterodimer agonist project, primary screen (AID 504692);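 also: 0% = cells with vehicle only and 100% = reference agonist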
EXPERIMENTAL PARAMETERS: HTR5A agonist assay, at 9.3 µM, hits give high values
About 2,000 (0.59%) of roughly 340,000 compounds were called active. Shown is part of a subset that was picked to be rich in actives.
MEASUREMENT TYPE: activation (%)
Response body: numeric value in %, unit text excluded.

Some solved entries appear below for comparison.
{"MOLECULE": "Cc1cccc(OCC(=O)Nc2ccccc2F)c1", "activation / %": 0.76}
{"MOLECULE": "CCN(CC)CCNC(=O)CCCCCn1c(=O)[nH]c2cc(C(=O)OC)ccc2c1=O", "activation / %": 1.57}
{"MOLECULE": "O=C(CCNS(=O)(=O)c1ccccc1C(F)(F)F)NCc1ccc2c(c1)OCO2", "activation / %": -3.01}
{"MOLECULE": "CCc1nnc(NC(=O)c2cc(S(=O)(=O)N3CCCCC3)ccc2C)s1", "activation / %": 3.55}
{"MOLECULE": "COc1ccc(C2C(C(C)=O)=C(O)C(=O)N2CCc2c[nH]c3ccccc23)cc1 (stereo unspecified)", "activation / %": 1.98}

Notebook: COc1ccc(N)c(C)c1 , activation read as 0.27

activation measured on O=C(CCCCCn1c(=O)[nH]c2ccccc2c1=O)NCCc1c[nH]c2ccccc12 = 12.7

Per the records, this molecule ( CCOC(=O)CC(=O)CSc1nc(-c2ccccc2)cc(-c2ccc(Cl)cc2)c1C#N ) has activation equal to 10.7

For this molecule ( COc1ccc2c(c1)C(=O)CC(c1ccccc1)O2 (stereo unspecified) ), measured activation is -1.73

Form: molecule = O=C(CCc1nnc(Cc2ccc3c(c2)OCO3)o1)NCCc1ccccc1Cl ; activation = 10.7

# molecule Cc1csc2nc(COC(=O)c3cccc(N(C)C)c3)cc(=O)n12 ; its activation = -1.39

Field activation (entry Cc1ccc(CCC(=O)Nc2ncc(Cc3cc(Cl)ccc3Cl)s2)o1 ) reads 17.4

// data source = PubChem BioAssay AID504692
